Target: human NPR1 (Homo sapiens, UniProt P16066)
Construct: host or cells: CHO-K1
Sequence (P16066 33-1061): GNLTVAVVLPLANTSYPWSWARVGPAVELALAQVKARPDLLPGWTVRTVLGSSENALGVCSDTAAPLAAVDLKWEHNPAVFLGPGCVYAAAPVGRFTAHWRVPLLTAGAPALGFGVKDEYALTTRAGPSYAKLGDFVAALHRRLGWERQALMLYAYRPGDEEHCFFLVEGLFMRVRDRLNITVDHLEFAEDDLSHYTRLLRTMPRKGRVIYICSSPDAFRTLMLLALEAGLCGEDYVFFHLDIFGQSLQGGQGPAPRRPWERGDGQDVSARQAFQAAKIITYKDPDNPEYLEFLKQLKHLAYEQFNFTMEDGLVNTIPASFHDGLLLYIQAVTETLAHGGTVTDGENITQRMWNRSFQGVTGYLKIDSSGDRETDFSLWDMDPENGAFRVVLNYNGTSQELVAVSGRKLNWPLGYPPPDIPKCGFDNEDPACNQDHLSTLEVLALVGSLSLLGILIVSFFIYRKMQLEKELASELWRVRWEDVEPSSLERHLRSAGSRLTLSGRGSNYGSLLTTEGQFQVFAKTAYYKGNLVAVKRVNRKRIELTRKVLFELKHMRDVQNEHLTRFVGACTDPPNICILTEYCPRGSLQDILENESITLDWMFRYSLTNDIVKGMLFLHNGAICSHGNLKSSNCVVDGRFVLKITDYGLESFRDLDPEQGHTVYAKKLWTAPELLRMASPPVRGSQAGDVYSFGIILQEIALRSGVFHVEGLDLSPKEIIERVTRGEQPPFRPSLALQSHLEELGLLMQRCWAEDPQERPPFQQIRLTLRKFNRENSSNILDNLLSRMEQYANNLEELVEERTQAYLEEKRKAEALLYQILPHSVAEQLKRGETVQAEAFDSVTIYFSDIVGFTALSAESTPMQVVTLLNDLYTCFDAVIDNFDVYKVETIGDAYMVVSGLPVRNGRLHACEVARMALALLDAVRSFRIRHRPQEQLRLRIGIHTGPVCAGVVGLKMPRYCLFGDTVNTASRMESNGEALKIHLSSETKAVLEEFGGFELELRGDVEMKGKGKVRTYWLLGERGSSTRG
Test: Cellular cGMP production assay, human NPR1 expressing CHO-K1 cells (CisBio HTRF)
Type: cell-based
Settings: maximum cGMP production as percentage of the maximum cGMP produced with ANP
Procedure: Cellular cGMP is a major second messenger that mediates cell activities and is synthesized by activated NPR1 triggered by binding of the natural ligand ANP. […] The assay was performed according to manufacturer's instructions with minor deviations. […] The readout was performed using an Envision plate reader (PerkinElmer) with an excitation wavelength of 317 nm and an emission wavelength of 665 nm. cGMP concentration (Delta F [° %]) was calculated according to the following formulae: […]
test-readout: Human NPR1 Amax (% of ANP)

Quick one: Human NPR1 Amax (% of ANP) for CC[C@@H](N(C)c1nc2c(c(N[C@@H](CN3C4CCCC3CC4)c3cnn(C)c3)n1)C[C@](C)(c1ccccc1)CC2)C12CC(C(=O)O)(C1)C2 [Compound 28] ?
103.247 % of ANP

Quick one: Human NPR1 Amax (% of ANP) for CC[C@H]([C@H]1CC[C@H](C(=O)O)CC1)N(C)c1nc2c(c(N[C@@H](CN3C4CCC3CC4)c3cnn(C)c3)n1)C[C@](C)(c1ccccc1)CC2 [Compound 70] ?
97.399 % of ANP

Quick one: Human NPR1 Amax (% of ANP) for CC[C@H]([C@H]1CC[C@H](C(=O)O)CC1)N(C)c1nc2c(c(N[C@@H](CN3C[C@H]4C[C@@H](C3)C4O)c3cnn(C)c3)n1)C[C@H](c1ccccc1)CC2 (some centres unmarked) [Compound 138] ?
105.993 % of ANP

Quick one: Human NPR1 Amax (% of ANP) for CC[C@H]([C@H]1CC[C@H](C(=O)O)CC1)N(C)c1nc2c(c(N[C@@H](CN3CCC[C@H](CO)C3)c3cnn(C)c3)n1)C[C@H](c1cccc(F)c1)CC2 [Compound 72] ?
99.718 % of ANP

Quick one: Human NPR1 Amax (% of ANP) for CC[C@H]([C@H]1CC[C@H](CC(=O)O)CC1)N(C)c1nc2c(c(N[C@@H](CN3CCC[C@H](C)C3)c3cnn(C)c3)n1)C[C@H](c1ccccc1)CC2 [Compound 67] ?
95.228 % of ANP

----------
molecular target: human NPR1 (Homo sapiens, UniProt P16066); construct: host or cells: CHO-K1; experiment: Cellular cGMP production assay, human NPR1 expressing CHO-K1 cells (CisBio HTRF); assay type: cell-based; conditions: maximum cGMP production as percentage of the maximum cGMP produced with ANP
Answer each item with its documented Human NPR1 Amax (% of ANP).

Quick one: Human NPR1 Amax (% of ANP) for `CC[C@@H](Nc1nc2c(c(N[C@@H](CN3C4CCCC3CCC4)c3cnn(C)c3)n1)C[C@H](c1ccccc1)CC2)[C@H]1CC[C@H](C(=O)O)CC1` ?
99.614 % of ANP

Quick one: Human NPR1 Amax (% of ANP) for `CC[C@@H](Nc1nc2c(c(N[C@@H](CN3C4CCCC3CC4)c3cnn(C)c3)n1)C[C@H](c1ccccc1)CC2)[C@H]1CC[C@H](C(=O)O)CC1` ?
93.233 % of ANP

Quick one: Human NPR1 Amax (% of ANP) for `CC[C@@H](Nc1nc2c(c(N[C@@H](CN3C[C@H]4CC[C@@H]3C4)c3cnn(CC)c3)n1)C[C@H](c1ccccc1)CC2)[C@H]1CC[C@H](C(=O)O)CC1` ?
102.209 % of ANP

Quick one: Human NPR1 Amax (% of ANP) for `CC[C@@H](Nc1nc2c(c(N[C@@H](CN3CCC[C@@H](C)C3)c3cnn(C)c3)n1)C[C@H](c1ccccc1)CC2)[C@H]1CC[C@H](C(=O)O)CC1` ?
100.223 % of ANP

Quick one: Human NPR1 Amax (% of ANP) for `CC[C@H]([C@H]1CC[C@H](C(=O)O)CC1)N(C)c1nc2c(c(N[C@@H](CN3CCCC(F)(F)CC3)c3cnn(C)c3)n1)C[C@H](c1ccccc1)CC2` ?
130.487 % of ANP

Reference for the values: patent US12129246B1
